# test description: chemical genetic growth profiling, strain panel (AID 1159580);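 also: tested at 20 µM; growth read once vehicle control cultures reached saturation at 30 °C; lower values mean less growth of the strain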
# conditions used: S. cerevisiae deletion strains, growth OD, locus YCL011C, strain gbp2
Hit rate of the full screen: of about 5,500 compounds, about 2,000 (36%) were called active. Roughly 18% stayed inconclusive and do not appear here. Rule as the data show it: active = normalized growth mostly below about 0.91 (no sharp cut-off); inconclusive = no clear call, values can overlap the other calls; inactive = mostly above about 0.92. This is one part of the list.
Select the matching outcome among active, inactive

Challenge: What is the recorded call for this compound in the test? C=C[C@@]1(C)CC(=O)[C@@]2(O)[C@](C)(O1)[C@@H](OC(C)=O)[C@@H](O)C1C(C)(C)CC[C@H](O)[C@@]12C (stereo partly specified)
Response given: inactive

Challenge: Could you check what this test reported for COc1c(C)c2c(c(O)c1C/C=C(\C)CCC(=O)O)C(=O)OC2 ?
Response given: active

Challenge: Field: outcome | Entry: CN(C)CCC(c1ccccc1)c1ccccn1 (stereo unspecified)
Response given: inactive

Challenge: Hey, what did the test say about CC(O)(P(=O)(O)O)P(=O)(O)O ?
Response given: inactive

Challenge: Hey, what did the test say about CC12CCCCC1(Br)[N+](=O)N2[O-] (stereo unspecified) ?
Response given: inactive

Challenge: Query: recorded result category for CC(=O)C1CC[C@H]2C3CC[C@H]4C[C@H](O)CC[C@]4(C)C3CC[C@]12C (stereo partly specified) in this test
Response given: inactive

Challenge: Recorded call for CCCNC(=O)NS(=O)(=O)c1ccc(Cl)cc1 ?
Response given: inactive

Challenge: Entry CCCn1c(=O)c2[nH]c(C3CCCC3)nc2n(CCC)c1=O : call = ?
Response given: inactive

Challenge: # fetch the recorded call for Nc1nc(F)nc2c1ncn2[C@@H]1O[C@H](COP(=O)(O)O)[C@@H](O)[C@@H]1O here
Response given: inactive

Challenge: # outcome recorded in this test, key = CC1(C)N([O-])[N+](=O)C1(C)Br (stereo unspecified)
Response given: inactive

Challenge: Each compound tested received a call. Report the one for CC(=O)C1CCC2C3CCC4C[C@H](O)CCC4(C)C3C[C@H](O)C12C (stereo partly specified) .
Response given: inactive
